Recorded measurements of inhibition at 1 µM, one per entry
target: recombinant human 17β-HSD1 (Homo sapiens); construct: made in house; host or cells: Sd9 (Sf9) insect cells, baculovirus (Bac to Bac Expression System); test: Inhibition of recombinant human 17β-HSD1; type: biochemical; details: inhibitor at 1 μM; 30 nM estrone, 1 mM NADPH, 30 min at RT; read-out: 17β-HDS1 Inhibition % at 1 μM
Sequence (P14061 whole entry): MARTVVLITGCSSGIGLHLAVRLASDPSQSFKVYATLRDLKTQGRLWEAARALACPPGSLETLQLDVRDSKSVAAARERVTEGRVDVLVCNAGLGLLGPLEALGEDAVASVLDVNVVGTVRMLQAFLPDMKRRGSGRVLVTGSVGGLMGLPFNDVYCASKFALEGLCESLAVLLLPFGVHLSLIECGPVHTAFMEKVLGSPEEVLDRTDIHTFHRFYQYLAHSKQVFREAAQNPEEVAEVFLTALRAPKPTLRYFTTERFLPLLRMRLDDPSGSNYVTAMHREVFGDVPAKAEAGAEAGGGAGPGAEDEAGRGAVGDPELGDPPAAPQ
API: value field is a number in %; no unit string.

[[record]]
compound = "Cc1ccc(S(=O)(=O)Oc2ccc3c(c2)CCC2C3CC[C@]3(C)C(=O)C[C@@H](CCC(=O)Nc4ncc(C)s4)C23)cc1 (stereo partly shown) [Compound 27]"
system_tested = "recombinant human 17β-HSD1 (Homo sapiens)"
assay_metric = "inhibition at 1 µM"
scale_unit = "%"
assay_result = 81


q: Can you look up the measured inhibition at 1 µM of Cc1cnc(NC(=O)CC[C@@H]2CC(=O)[C@@]3(C)CCC4c5cc(F)ccc5CCC4C23)s1 (stereo partly shown) [Compound 86] for me?
a: 92

q: // repeat for Cc1cnc(NC(=O)CC[C@@H]2CC(=O)[C@@]3(C)CCC4c5ccc(OC(=O)CNC(=O)OC(C)(C)C)cc5CCC4C23)s1 (stereo partly shown) [Compound 15] and report
a: 66

q: Now the same for Cc1cnc(NC(=O)CC[C@@H]2CC(=O)[C@@]3(C)CCC4c5ccc(O)c(I)c5CCC4C23)s1 (stereo partly shown) [Compound 54]
a: 86
